- TESTED_SYSTEM: T1, human IL-17A (human, UniProt Q16552 24-155)
- T1 construct: Recombinant; biotinylated in the ELISA; also called hIL-17; hIL17A
- T1 sequence (Q16552 24-155): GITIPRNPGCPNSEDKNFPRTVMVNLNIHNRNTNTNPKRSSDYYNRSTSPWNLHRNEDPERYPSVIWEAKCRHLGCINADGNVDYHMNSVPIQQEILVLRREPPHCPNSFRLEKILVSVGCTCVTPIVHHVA
- PROTOCOL_DETAILS: SPR (Biacore 3000), antibody captured by anti-Fc, antigen in solution;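 also: purified recombinant IL-17 antigens flowed over captured antibodies in HBS-EP buffer, global Langmuir one-to-one fit of association and dissociation phases, KD derived from koff over kon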
METRIC_NAME: Kd (nM)

BINDER	METRIC_NAME	MEASUREMENT
IL17-h5C5.18 (antibody, V domains shown, IgG; constant regions not specified; also called h5C5.18 (VH.1b-Vk.1c)) VH: EVQLVQSGAEVKKPGASVKVSCKASGYTFTDYEFHWVRQAPGQGLEWIGVIHPGNGGTAYNQNFRDRATLTADKSTSTAYMELSSLRSEDTAVYYCTRFLTYEGYFDYWGQGTLVTVSS VL: NIVMTQSPSSLSASVGDRVTITCKASQSVSIDVGWFQQKPGKSPKLLIYHASNRYTGVPSRFSGSGSGTDFTFTISSLQPEDFATYFCQQDYSSPYTFGQGTKLEIKR	Kd	0.521
IL17-h10F7.6 (antibody, V domains shown, IgG; constant regions not specified; also called h10F7.6 (VH.1a-Vk.1a)) VH: EVQLVQSGAEVKKPGSSVKVSCKASGYTFTDYEIHWVRQAPGQGLEWIGVNDPESGGTFYNQKFDGRATLTADKSTSTAYMELSSLRSEDTAVYYCTRYYRYESFYGMDYWGQGTTVTVSS VL: DIQLTQSPSSLSASVGDRVTITCSASSSISYIYWFQQKPGKSPKRWIYATFELASGVPSRFSGSGSGTDYTLTISSLQPEDFATYYCHQRSSYPWTFGQGTKLEIKR	Kd	0.302
IL17-h5C5.14 (antibody, V domains shown, IgG; constant regions not specified; also called h5C5.14 (VH.1-Vk.3a)) VH: EVQLVQSGAEVKKPGASVKVSCKASGYTFTDYEFHWVRQAPGQGLEWMGVIHPGNGGTAYNQNFRDRVTITADKSTSTAYMELSSLRSEDTAVYYCARFLTYEGYFDYWGQGTLVTVSS VL: EIVMTQSPATLSVSPGERATLSCKASQSVSIDVGWFQQKPGQSPRLLIYHASNRYTGVPARFSGSGSGTDFTLTISSLQPEDFAVYFCQQDYSSPYTFGQGTKLEIKR	Kd	0.363
